Assay: Cell cytotoxicity test: protection of HT22 cells against glutamate toxicity (EC50) and cytotoxicity of the compounds (CC50), MTT
Type: cell-based, mouse
Conditions: mouse, HT22 cells (mouse hippocampal neuron)
Method: HT22 cells (mouse hippocampal neuron, Salk Institute and KRIBB) were plated in a 96-well plate at a density of 3×10^3 cells/well for 16 hrs before treatment. […] Then, the cells were treated with 3-(4,5-dimethylthiazol-2-yl)-2,5-diphenyltetrazolium bromide (MTT, Sigma®) for 4 hrs and absorbance of each well was measured with a plate reader at a wavelength of 450 nm. […]
Structures can show the parent of a compound that is named as a salt.
Categorize each record by its CC50 at 24 h using lower range: < 6 µM; middle range: ≥ 6 µM and < 40 µM; upper range: ≥ 40 µM

[
  {
    "compound": "Oc1cc2c(cc1Nc1cc(Cl)ccc1Cl)C[C@@H]1NCC[C@]23CCCC[C@H]13 [Example 64, TFA salt]",
    "qualitative.label": "lower range"
  },
  {
    "compound": "CN(c1cc2c(cc1O)[C@]13CCCC[C@@H]1[C@H](C2)NCC3)c1ccccc1NS(C)(=O)=O [Example 125, TFA salt]",
    "qualitative.label": "upper range"
  },
  {
    "compound": "NC(=O)c1ccccc1Nc1cc2c(cc1O)[C@]13CCCC[C@@H]1[C@H](C2)NCC3 [Example 61, TFA salt]",
    "qualitative.label": "upper range"
  },
  {
    "compound": "Cc1c2c(cc(O)c1Nc1ccccc1NS(C)(=O)=O)[C@]13CCCC[C@@H]1[C@H](C2)NCC3 [Example 134, TFA salt]",
    "qualitative.label": "upper range"
  },
  {
    "compound": "COc1ccc(Nc2cc3c(cc2O)[C@]24CCCC[C@@H]2[C@H](C3)NCC4)cc1OC [Example 63, TFA salt]",
    "qualitative.label": "middle range"
  },
  {
    "compound": "Oc1cc2c(cc1Nc1ccccc1OC(F)(F)F)C[C@@H]1NCC[C@]23CCCC[C@H]13 [Example 59, TFA salt]",
    "qualitative.label": "lower range"
  },
  {
    "compound": "CCNC(=O)Nc1ccccc1Nc1cc2c(cc1O)[C@]13CCCC[C@@H]1[C@H](C2)NCC3 [Example 120, TFA salt]",
    "qualitative.label": "middle range"
  },
  {
    "compound": "OCCNc1cc2c(cc1O)[C@]13CCCC[C@@H]1[C@H](C2)NCC3 [Example 100, TFA salt]",
    "qualitative.label": "upper range"
  },
  {
    "compound": "Oc1cc2c(cc1N1CCCCCC1)C[C@@H]1NCC[C@]23CCCC[C@H]13 [Example 17, TFA salt]",
    "qualitative.label": "middle range"
  },
  {
    "compound": "CS(=O)(=O)Nc1ccccc1Nc1c(O)cc2c(c1Br)C[C@@H]1NCC[C@]23CCCC[C@H]13 [Example 132, TFA salt]",
    "qualitative.label": "middle range"
  },
  {
    "compound": "Oc1cc2c(cc1NC1CCCCCC1)C[C@@H]1NCC[C@]23CCCC[C@H]13 [Example 94, TFA salt]",
    "qualitative.label": "middle range"
  },
  {
    "compound": "CCN(C)c1ccccc1Nc1cc2c(cc1O)[C@]13CCCC[C@@H]1[C@H](C2)NCC3 [Example 131, TFA salt]",
    "qualitative.label": "lower range"
  },
  {
    "compound": "Oc1cc2c(cc1Nc1ccc3c(c1)OCO3)C[C@@H]1NCC[C@]23CCCC[C@H]13 [Example 36, TFA salt]",
    "qualitative.label": "upper range"
  },
  {
    "compound": "CCc1ccccc1Nc1cc2c(cc1O)[C@]13CCCC[C@@H]1[C@H](C2)NCC3 [Example 49, TFA salt]",
    "qualitative.label": "lower range"
  },
  {
    "compound": "CN1CCN(c2cc3c(cc2O)[C@]24CCCC[C@@H]2[C@H](C3)NCC4)CC1",
    "qualitative.label": "middle range"
  },
  {
    "compound": "Oc1cc2c(cc1Nc1ccc(OC(F)(F)F)cc1)C[C@@H]1NCC[C@]23CCCC[C@H]13 [Example 58, TFA salt]",
    "qualitative.label": "lower range"
  },
  {
    "compound": "Oc1ccc(Nc2cc3c(cc2O)[C@]24CCCC[C@@H]2[C@H](C3)NCC4)cc1 [Example 26, TFA salt]",
    "qualitative.label": "lower range"
  },
  {
    "compound": "COc1ccc(Nc2cc3c(cc2O)[C@]24CCCC[C@@H]2[C@H](C3)NCC4)cc1 [Example 31, TFA salt]",
    "qualitative.label": "middle range"
  },
  {
    "compound": "CC(C)c1ccccc1Nc1cc2c(cc1O)[C@]13CCCC[C@@H]1[C@H](C2)NCC3 [Example 50, TFA salt]",
    "qualitative.label": "lower range"
  },
  {
    "compound": "CNc1ccccc1Nc1cc2c(cc1O)[C@]13CCCC[C@@H]1[C@H](C2)NCC3 [Example 127, TFA salt]",
    "qualitative.label": "lower range"
  },
  {
    "compound": "CCN(C)c1cc2c(cc1O)[C@]13CCCC[C@@H]1[C@H](C2)NCC3 [Example 103, TFA salt]",
    "qualitative.label": "upper range"
  },
  {
    "compound": "Oc1cc2c(cc1-c1ccc(C(F)(F)F)cc1)C[C@@H]1NCC[C@]23CCCC[C@H]13 [Example 79, TFA salt]",
    "qualitative.label": "middle range"
  },
  {
    "compound": "Oc1cc2c(cc1NC1CCCC1)C[C@@H]1NCC[C@]23CCCC[C@H]13 [Example 92, TFA salt]",
    "qualitative.label": "upper range"
  },
  {
    "compound": "Oc1cc2c(cc1Nc1cccc(Cl)c1O)C[C@@H]1NCC[C@]23CCCC[C@H]13 [Example 55, TFA salt]",
    "qualitative.label": "middle range"
  },
  {
    "compound": "CSc1cc2c(cc1O)[C@]13CCCC[C@@H]1[C@H](C2)NCC3 [Example 72, TFA salt]",
    "qualitative.label": "upper range"
  },
  {
    "compound": "CN(c1ccc(F)cc1)c1cc2c(cc1O)[C@]13CCCC[C@@H]1[C@H](C2)NCC3 [Example 124, TFA salt]",
    "qualitative.label": "middle range"
  },
  {
    "compound": "Oc1cc2c(cc1N1CCCCC1)C[C@@H]1NCC[C@]23CCCC[C@H]13 [Example 21, TFA salt]",
    "qualitative.label": "upper range"
  },
  {
    "compound": "Oc1cc2c(cc1Nc1cccc(F)c1)C[C@@H]1NCC[C@]23CCCC[C@H]13 [Example 39, TFA salt]",
    "qualitative.label": "middle range"
  },
  {
    "compound": "CCCNc1cc2c(cc1O)[C@]13CCCC[C@@H]1[C@H](C2)NCC3 [Example 88, TFA salt]",
    "qualitative.label": "middle range"
  }
]
